Target: HLA-A*02:02
Assay: IEDB peptide-MHC binding, purified MHC/competitive/radioactivity; bounds were set here for any values at or beyond the usual limits of such assays
Details: source organism: Mammarenavirus choriomeningitidis
Exercise: state measured IC50 for each of the sequences provided.
One number for each entry, in µM.

Illustrative cases are given below, each with its answer.
BIOSEQUENCE	UOM	IC50
SCDDVVFGI	µM	2.15
FSTSAYLISI	µM	0.00068
ALMDCIIFES	µM	0.0021
LNMFVSDQV	µM	0.018

Req: State measured IC50 of the sequence LSYSQTMLL with HLA-A*02:02.
Resp: 2.11

###

Biological target: HLA-A*02:03
Assay: IEDB peptide-MHC binding, cellular MHC/competitive/fluorescence; bounds were set here for any values at or beyond the usual limits of such assays
Settings: source organism: Vaccinia virus WR
QUANTITY_KIND: pIC50
Numbers only, as −log10 of the molar value.

Illustrative cases are given below, each with its answer.
BIOSEQUENCE	EXPERIMENTAL_VALUE
VVIVENDNV	4.42
FIDRGSIKI	4.91
KLISEKETL	4.61
EQRRSTIFDI	4.94
SANMDWRSLT	4.95

Batch request: pIC50 for each of the following sequences.
1. CTEETKRNIA
2. EIARIENEM
3. VMDTLNGIMM
4. QAKKPEVRI
5. DTCLLAISA
6. AIDRQVSVKL
7. RINLLVQYGA
8. VIVPDIKLDA

Resp:
[4.30, 4.32, 5.29, 5.18, 5.19, 4.88, 4.81, 4.67]
